These entries and their values trace back to patent US20260098033A1.

Assay: Pharmacokinetic study in beagle dogs, oral administration
Assay type: in vivo, beagle dog
Details: male beagle dog, 1 mg/kg, plasma
reported metric: Cmax (ng/mL)

compound="OC[C@H]1O[C@@H](c2cc(Cc3ccc(C4CC4)cc3)c(Cl)c3c2CCO3)[C@H](O)[C@@H](O)[C@@H]1O [Crystalline form E of enavogliflozin, enavogliflozin]" measured_value=470
